# Target desc: Vascular endothelial growth factor receptor 1 (Homo sapiens, UniProt P17948)
# Sequence (P17948 whole entry): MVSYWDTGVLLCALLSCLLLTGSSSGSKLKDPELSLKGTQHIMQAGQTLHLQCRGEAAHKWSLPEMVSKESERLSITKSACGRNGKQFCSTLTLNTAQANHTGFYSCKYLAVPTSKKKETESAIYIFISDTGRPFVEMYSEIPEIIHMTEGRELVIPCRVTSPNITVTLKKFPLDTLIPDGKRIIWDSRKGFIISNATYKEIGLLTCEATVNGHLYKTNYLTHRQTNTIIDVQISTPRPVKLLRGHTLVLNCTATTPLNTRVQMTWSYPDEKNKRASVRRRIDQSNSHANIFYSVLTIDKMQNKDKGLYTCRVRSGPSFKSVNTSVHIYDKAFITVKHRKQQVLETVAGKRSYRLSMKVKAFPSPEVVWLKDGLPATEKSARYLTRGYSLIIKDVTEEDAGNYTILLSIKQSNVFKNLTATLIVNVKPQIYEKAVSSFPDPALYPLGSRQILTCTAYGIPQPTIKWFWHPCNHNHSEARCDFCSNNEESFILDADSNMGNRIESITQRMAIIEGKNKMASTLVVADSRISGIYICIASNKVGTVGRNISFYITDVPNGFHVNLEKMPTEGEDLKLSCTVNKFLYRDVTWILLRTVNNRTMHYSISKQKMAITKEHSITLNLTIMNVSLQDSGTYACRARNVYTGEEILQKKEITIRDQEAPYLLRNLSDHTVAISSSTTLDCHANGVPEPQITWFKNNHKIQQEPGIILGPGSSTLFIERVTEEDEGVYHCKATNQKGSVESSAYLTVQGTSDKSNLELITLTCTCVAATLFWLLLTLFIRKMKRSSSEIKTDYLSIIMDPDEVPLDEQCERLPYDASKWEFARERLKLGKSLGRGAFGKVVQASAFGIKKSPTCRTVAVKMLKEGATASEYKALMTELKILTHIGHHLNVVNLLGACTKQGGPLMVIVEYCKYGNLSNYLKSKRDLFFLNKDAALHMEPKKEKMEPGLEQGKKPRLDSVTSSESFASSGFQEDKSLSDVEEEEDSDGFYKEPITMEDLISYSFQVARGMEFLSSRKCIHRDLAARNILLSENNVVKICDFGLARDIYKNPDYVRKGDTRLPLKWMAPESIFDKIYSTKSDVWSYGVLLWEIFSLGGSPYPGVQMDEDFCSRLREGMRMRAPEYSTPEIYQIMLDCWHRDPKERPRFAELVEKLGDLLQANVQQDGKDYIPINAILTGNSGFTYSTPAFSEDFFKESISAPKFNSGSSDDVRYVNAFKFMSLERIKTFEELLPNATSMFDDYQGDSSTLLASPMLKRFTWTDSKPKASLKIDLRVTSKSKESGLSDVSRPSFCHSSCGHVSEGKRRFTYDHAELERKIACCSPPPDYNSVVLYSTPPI
# Experiment description: Inhibition of VEGFR1 phosphorylation in human A498 cells after 10 mins by FLISA
Quantity: IC50

Cc1ccccc1Cc1cc2c(Nc3cccc(Br)c3)ncnc2[nH]1 :: > 300 µM
Nc1nc(Nc2cccc(C(F)(F)F)c2)c2cc(Cc3ccc(Cl)cc3Cl)[nH]c2n1 :: 156 µM
FC(F)(F)c1cccc(Nc2ncnc3[nH]c(Cc4ccc(Cl)cc4Cl)cc23)c1 :: > 300 µM

====

# Target desc: UniProtKB P09619
# Sequence (P09619 whole entry): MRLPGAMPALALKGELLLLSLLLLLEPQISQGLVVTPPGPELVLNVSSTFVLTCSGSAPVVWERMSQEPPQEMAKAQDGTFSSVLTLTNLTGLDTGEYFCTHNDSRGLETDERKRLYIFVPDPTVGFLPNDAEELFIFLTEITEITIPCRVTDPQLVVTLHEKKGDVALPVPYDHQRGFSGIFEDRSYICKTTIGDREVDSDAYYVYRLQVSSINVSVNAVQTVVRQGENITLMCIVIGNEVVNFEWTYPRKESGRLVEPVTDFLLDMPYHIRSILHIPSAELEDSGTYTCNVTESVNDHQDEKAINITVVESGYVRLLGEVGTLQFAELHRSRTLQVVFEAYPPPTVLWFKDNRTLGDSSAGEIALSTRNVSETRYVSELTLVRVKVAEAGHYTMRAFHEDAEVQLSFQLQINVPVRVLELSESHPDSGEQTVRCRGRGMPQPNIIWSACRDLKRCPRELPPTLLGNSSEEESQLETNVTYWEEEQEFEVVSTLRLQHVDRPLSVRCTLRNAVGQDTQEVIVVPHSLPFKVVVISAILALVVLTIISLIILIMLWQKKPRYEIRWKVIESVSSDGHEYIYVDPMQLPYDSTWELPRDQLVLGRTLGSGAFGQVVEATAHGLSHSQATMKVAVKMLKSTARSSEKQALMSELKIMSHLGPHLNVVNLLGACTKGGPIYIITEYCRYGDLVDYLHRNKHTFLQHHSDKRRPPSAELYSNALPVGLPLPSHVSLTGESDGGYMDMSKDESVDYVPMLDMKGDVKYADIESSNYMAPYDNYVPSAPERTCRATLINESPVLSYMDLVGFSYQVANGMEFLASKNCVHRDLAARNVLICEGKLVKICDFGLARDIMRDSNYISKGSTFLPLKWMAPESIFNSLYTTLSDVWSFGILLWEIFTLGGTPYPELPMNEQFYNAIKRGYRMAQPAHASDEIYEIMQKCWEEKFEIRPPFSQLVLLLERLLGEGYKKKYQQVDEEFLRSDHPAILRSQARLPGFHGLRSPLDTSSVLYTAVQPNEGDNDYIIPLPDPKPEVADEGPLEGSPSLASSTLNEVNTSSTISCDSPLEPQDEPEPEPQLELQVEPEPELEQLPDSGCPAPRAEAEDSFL
# Experiment description: Inhibition of PDGFRbeta phosphorylation in human SF539 cells after 10 mins by FLISA
Collected IC50 values appear next to each entry.
Quantity: IC50

CC(C)c1ccc(Nc2nc(N)nc3[nH]c(Cc4ccc(Cl)cc4Cl)cc23)cc1 :: 175 µM
C#Cc1cccc(Nc2ncnc3[nH]c(Cc4ccc(Cl)cc4Cl)cc23)c1 :: 142 µM
Nc1nc(Nc2cccc(C(F)(F)F)c2)c2cc(Cc3ccc(Cl)cc3Cl)[nH]c2n1 :: > 300 µM
C#Cc1cccc(Nc2nc(N)nc3[nH]c(Cc4ccc(Cl)cc4Cl)cc23)c1 :: > 300 µM
Nc1nc(Nc2ccc(Br)cc2Cl)c2cc(Cc3ccc(Cl)cc3Cl)[nH]c2n1 :: > 300 µM
Nc1nc(Nc2ccc(C(F)(F)F)c(F)c2)c2cc(Cc3ccc(Cl)cc3Cl)[nH]c2n1 :: > 300 µM
Cc1ccccc1Cc1cc2c(Nc3cccc(Br)c3)nc(N)nc2[nH]1 :: > 50 µM

All values here come from ChEMBL document CHEMBL1157126.
